From: patent US20110223168A1

target.of.assay: T1, human TNFα (human, UniProt P01375 77-233)
T1 construct: Coated on plates, coupled to a CM5 chip, or added in solution (10 ng/ml) in the TNF receptor assay; the assay paragraphs often print only 'TNF'; also called TNF alpha; TAR1
experimental.details: TNF receptor assay: inhibition of TNF binding to TNFR1-Fc (ELISA)

binder	IC50
TAR1-5d6 (other, dAb-linker-dAb dimer; also called TAR1-5 dimer 6) DIQMTQSPSSLSASVGDRVTITCRASQSIFMNLLWYQQKPGKAPKLLIYNASVLQSGVPSRFSGSGSGTDFTLTISSLQPEDFATYYCQQVVWRPFTFGQGTKVEIKRGGGGSGGGGSGGGGSGGGGSGGGGSGGGGSGGGGSDIQMTQSPSSLSASVGDRVTITCRASQSIYDALEWYQQKPGKAPKLLIYTASRLQSGVPSRFSGSGSGTDFTLTISSLQPEDFATYYCQQVMQRPVTFGQGTKVEIKR	~100 nM
